tested on: SK-MEL-28 melanoma; assay: NCI tumour cell line growth inhibition, 48 h
Recorded GI50 by entry

Solved entries (count: 3):
Q: Please report the measured GI50 for COc1ccc(-n2cc(-c3cc(OC)c(OC)c(OC)c3)nc2SCc2ccc(Cl)cc2)cc1OC tested on SK-MEL-28 melanoma.
A: > 100 µM

Q: Name the recorded GI50 of Cc1nnc(C[C@@H]2C=C(c3ccc(Cl)cc3)c3ccccc3-n3c(C)nnc32)o1 , assay system SK-MEL-28 melanoma.
A: 2.24 µM

Q: Quote SK-MEL-28 melanoma GI50 for entry CC1(C)OB(c2ccc(N(CCOS(C)(=O)=O)CCOS(C)(=O)=O)cc2)OC1(C)C .
A: 34 µM

New cases:
Q: Recall the reported GI50 of O=c1cc(-c2ccc(Cl)cc2)[nH]c2ccccc12 when tested on SK-MEL-28 melanoma.
A: > 100 µM

Q: Give the observed GI50 of Cc1cc(F)c(C(=O)Nc2cccc(-c3nncn3C(C)C)n2)cc1-n1cnc(C2CC2)c1 for SK-MEL-28 melanoma.
A: 20.9 µM

Q: Quote SK-MEL-28 melanoma GI50 for entry NC(N)=NN=c1c(=O)c2ccccc2c1=O .
A: 2 µM

Q: Look up and report GI50, with SK-MEL-28 melanoma as system, for CCOC(=O)/C(=C/CC/C(C)=C/CC/C(C)=C/CCc1ccoc1)CC(=O)N1CCCCC1
A: 3.2 µM

Q: Report the value of GI50 obtained on SK-MEL-28 melanoma for O=C1c2c(O)cccc2C(C(=O)CCCCCC(=O)C2c3cccc(O)c3C(=O)c3c(O)cccc32)c2cccc(O)c21 .
A: 7.4 µM

Q: Give reported GI50 for C1=N[C@]23C(=N[C@H](N=C2NCc2ccco2)[C@]24N=CNC2=N[C@H]3N=C4NCc2ccco2)N1 (SK-MEL-28 melanoma)
A: > 100 µM

Q: Give the observed GI50 of COc1ccc2[nH]c(Cl)c(/C=C3/C(=O)Nc4ccccc43)c2c1 for SK-MEL-28 melanoma.
A: 0.459 µM

Q: State the measured GI50 (SK-MEL-28 melanoma) of Cc1cc(S(=O)(=O)/N=C(\N)Nc2cccc(O)c2)c(SCc2ccccc2)cc1Cl
A: 14.1 µM

====

tested on: IGROV1 ovarian; assay: NCI tumour cell line growth inhibition, 48 h
parameter: TGI

Please review the entries below; each comes with its answer.
Q: # return TGI of O=S(=O)(C1=CC(S(=O)(=O)c2ccccc2)COC1)c1ccccc1 (configuration not stated) (system: IGROV1 ovarian)
A: > 100 µM

Q: State recorded TGI with IGROV1 ovarian, entry COc1cccc(N/C(C)=C2/CCOC2=O)c1 , no comment.
A: > 10 µM

Q: Report TGI on IGROV1 ovarian for this entry: CC1CC(C[N+](=O)[O-])CC2(C1)OCCO2 (configuration not stated)
A: > 100 µM

Q: Report the value of TGI obtained on IGROV1 ovarian for NC(Cc1ccc(O)cn1)C(=O)NC(C(=O)O)c1ccccc1 (configuration not stated) .
A: > 100 µM

Q: Recall the reported TGI of CCCCCC/C=C/C#CCCCCCCCC(=O)O when tested on IGROV1 ovarian.
A: > 100 µM

Please look at the following molecule next.
Q: Quote TGI with test system IGROV1 ovarian for CCCCCCCCCCC(=O)CCCCCCC(=O)O
A: 34.9 µM

====

system: OVCAR-3 ovarian; test: NCI tumour cell line growth inhibition, 48 h
parameter: TGI (µM)
Quick reminder: number only, in µM, skip the unit.

Q: State its TGI for this compound: Cc1cc(OCc2nc(N)nc(N)c2-c2ccc(Cl)c(Cl)c2)ccc1[N+](=O)[O-]
A: 3.29

Q: Give the reported TGI for this compound. CC(NC(=O)Cc1ccc(OP(=O)(OCc2ccc([N+](=O)[O-])o2)N(C)CCCCCl)cc1)c1ccc(OCC2CCCCC2)c(C(N)=O)c1 (stereo not given)
A: 3.75

Q: Respond only with TGI recorded for N#C/C(=C\c1ccc(O)c(O)c1)C(=O)NCc1ccc(C(F)(F)F)cc1
A: 1.11

Next:
Q: Quickly give me recorded TGI for O=C1CC(c2ccc(Cl)cc2)C2(C(=O)NC(=S)NC2=O)C(c2ccc(Cl)cc2)C1 (stereo not given)
A: 33.9

====

# TGI listing for each entry below
tested on: SF-268 CNS; experiment: NCI tumour cell line growth inhibition, 48 h

Q: State measured TGI of the compound OC1(c2ccccc2)CC2CCC(C1)N2CCCC(O)(c1ccccc1)c1ccccc1 (stereo not given) with SF-268 CNS.
A: 30.1 µM

---
Q: Please look at C#CCN(N=O)C(=O)NC(CCCCNC(=O)OCc1ccccc1)C(=O)OCc1ccccc1 (stereo not given) and tell me its recorded TGI on SF-268 CNS.
A: > 100 µM

Q: Report the value of TGI obtained on SF-268 CNS for C1=N[C@]23C(=N[C@H](N=C2NCc2ccco2)[C@]24N=CNC2=N[C@H]3N=C4NCc2ccco2)N1 .
A: > 100 µM

Q: Report value: TGI, system: SF-268 CNS, compound: O=C(NN1C(=O)C(Cl)C1c1cccc(O)c1)c1ccccc1O (stereo not given)
A: > 100 µM

Q: Give TGI for N#CCCN(CCC#N)c1ccc(/C=C(/NC(=O)c2cc([N+](=O)[O-])ccc2Cl)C(=O)N=[N+]=[N-])cc1 tested on SF-268 CNS.
A: > 100 µM

Q: # lookup: SF-268 CNS TGI, key = CC12Nc3ccccc3C1=C(c1ccccc1)CC1C(=O)OC(=O)C12 (stereo not given)
A: > 100 µM

====

test system: RPMI-8226 leukemia; assay: NCI tumour cell line growth inhibition, 48 h
TGI values for the compounds below.

Q: Assign TGI to the following record: Cc1nc2cn3c(c2c(=O)[nH]1)CCCCC3
A: > 100 µM

Q: // fetch TGI given entry CC1CC(=O)Nc2ccc(Cl)cc2N1C(=O)CN1CCC(CCCCN(C)C)CC1 (centres undefined)
A: > 100 µM

Q: For the compound CN(C)c1ccc(/C=C/C(=O)c2ccc(Nc3nc(Nc4ccc(F)cc4)nc(Nc4ccc(F)cc4)n3)cc2)cc1 , give its measured TGI value.
A: > 100 µM

Next:
Q: Tell me measured TGI for Cc1cccc(C(C)(C)C)c1NC(=O)C(C#N)C1=C(Cl)C(=O)c2ccccc2C1=O (centres undefined) please.
A: 49.2 µM

Q: // fetch TGI given entry O=C(NC1CCN(Cc2ccccc2)CC1)c1cc(-c2cccnc2)nc2ccc(Cl)cc12
A: > 100 µM

Q: Read off the recorded TGI for CC[C@H](C)[C@H](NC(=O)N(CCC#N)CCN(CCN(C(=O)N[C@@H](Cc1ccccc1)C(=O)OC)c1ccccc1)C(=O)N[C@H](C(=O)OC)C(C)C)C(=O)OC
A: 29.1 µM

Q: Report measured TGI; entry is N=c1c2sc3nc4ccccc4n3c2ncn1Cc1ccccc1
A: > 100 µM

Q: Please indicate TGI recorded for CON(C)c1nc(N)c(C#N)c(C#N)c1C#N
A: > 10 µM

Q: Tell us which TGI value is on record for CCN(CC)CC1CCCCN1CC(=O)N1c2cc(Cl)ccc2NC(=O)CC1C (centres undefined)
A: > 100 µM

====

test system: U251 CNS; assay: NCI tumour cell line growth inhibition, 48 h
Parameter TGI: see the listing below.

// worked examples, TGI included
Q: Note down TGI recorded for O=C1C=CC2(CCCCCCC2=O)CC1 (stereo unspecified)
A: > 100 µM

Q: Note TGI for the molecule shown: c1ccc(CN2CCC(=NN3CCCCC3)CC2)cc1
A: > 100 µM

Q: State its TGI for this molecule: COc1ccc(CN(CCN(C)C)c2ccccn2)cc1 (tested in a mixture with another compound)
A: > 100 µM

Q: Specify measured TGI for OC1(c2ccccc2)CC2CCC(C1)N2CCCC(O)(c1ccccc1)c1ccccc1 (stereo unspecified) .
A: 28.7 µM

Q: State its TGI: Nc1nc(Cl)cc(NCC2(CO)CCCCC2)n1
A: > 100 µM

Alright, here's another molecule for you.
Q: Dear colleague, please send me the reported TGI for NC(Cc1ccc(O)cn1)C(=O)NC(C(=O)O)c1ccccc1 (stereo unspecified) when you can.
A: > 100 µM

====

Each entry below carries its reported TGI.
tested on: SK-MEL-2 melanoma; assay: NCI tumour cell line growth inhibition, 48 h

Below, each entry is followed by its recorded TGI result.
Q: Give reported TGI value for O=c1oc2ccc([N+](=O)[O-])cc2nc1/C=C(\O)c1ccccc1
A: 98.2 µM

Q: Read off the recorded TGI for O=C(N/N=C(/COc1ccccc1)N=Cc1ccncc1)c1ccncc1
A: > 100 µM

Q: Read the entry CC(=O)Nc1ccc(-c2nnc(SCC(=O)Nc3cccc(C)c3)o2)cc1 and write its reported TGI.
A: 28.6 µM

Q: Specify reported TGI for the compound shown: CC(C)OP(=O)(OC(C)C)C(=NCCO)NNc1ccc([N+](=O)[O-])cc1
A: > 100 µM

Q: For CC1(CO)C(O)CCC2(C)C1CCC1CC3CC12CCC3(O)CO (configuration not stated) , write its TGI.
A: > 100 µM

Q: Give the value of TGI reported for the following: Cc1noc2cccc(O)c12
A: > 100 µM

Others:
Q: Respond only with TGI recorded for Oc1ccc(NC(=S)Nc2ccccc2)cc1
A: > 100 µM

Q: Specify TGI for COc1cc(/C=C/C(=O)c2cccc3ccccc23)cc(OC)c1OC and stop.
A: 12.4 µM

Q: Report TGI for COc1cccc(/C=N/[N-]C(=O)c2ccncc2)c1[O-].[Mn+2].[OH3+]
A: > 100 µM

Source listed as PubChem BioAssay (NCI).
